Biological target: T1, human BCMA (human, UniProt Q02223 1-54)
T1 construct: also called huBCMA; hBCMA
T1 sequence: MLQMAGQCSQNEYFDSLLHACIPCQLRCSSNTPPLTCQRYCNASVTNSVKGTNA
Assay: SPR, immobilised IgG, 37° C
Here, each record is paired with measured T½ data.

binder	unitSymbol	T½
L3.PY/L3.KY/H3.YA (antibody, V domains shown, IgG in the assay) VH: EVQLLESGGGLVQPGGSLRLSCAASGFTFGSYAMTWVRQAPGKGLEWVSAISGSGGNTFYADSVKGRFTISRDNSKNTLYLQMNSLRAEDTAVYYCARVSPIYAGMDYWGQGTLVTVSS VL: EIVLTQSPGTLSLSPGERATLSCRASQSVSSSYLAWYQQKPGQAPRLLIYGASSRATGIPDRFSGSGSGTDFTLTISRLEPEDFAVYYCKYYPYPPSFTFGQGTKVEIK	min	12.7
L3.PY/L1.PS/H3.AE (antibody, V domains shown, IgG in the assay) VH: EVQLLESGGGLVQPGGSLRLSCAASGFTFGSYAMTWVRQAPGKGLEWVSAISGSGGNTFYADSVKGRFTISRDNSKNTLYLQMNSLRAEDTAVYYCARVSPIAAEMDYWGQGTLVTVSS VL: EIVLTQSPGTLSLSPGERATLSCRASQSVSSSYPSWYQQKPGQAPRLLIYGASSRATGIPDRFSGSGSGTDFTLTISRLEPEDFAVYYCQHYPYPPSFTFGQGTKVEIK	min	7.93
L3.PY/L3.KF/H2.YQ (antibody, V domains shown, IgG in the assay) VH: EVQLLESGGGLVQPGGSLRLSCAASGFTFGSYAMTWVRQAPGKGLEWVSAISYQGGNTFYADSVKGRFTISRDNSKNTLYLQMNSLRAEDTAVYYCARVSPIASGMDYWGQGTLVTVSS VL: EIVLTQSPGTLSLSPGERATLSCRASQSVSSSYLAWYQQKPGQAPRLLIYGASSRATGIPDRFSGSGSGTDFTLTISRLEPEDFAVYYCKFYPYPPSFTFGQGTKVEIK	min	5.18
L3.PY/L1.PH/H3.AQ (antibody, V domains shown, IgG in the assay) VH: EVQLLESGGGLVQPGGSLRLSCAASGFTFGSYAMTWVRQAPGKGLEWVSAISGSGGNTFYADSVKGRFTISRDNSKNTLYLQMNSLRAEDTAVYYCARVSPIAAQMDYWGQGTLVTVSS VL: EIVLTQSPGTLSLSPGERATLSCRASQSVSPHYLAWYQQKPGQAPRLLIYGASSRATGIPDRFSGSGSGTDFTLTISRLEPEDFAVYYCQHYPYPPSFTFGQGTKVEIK	min	7.27
L3.PY/L1.FF/H3.TAQ (antibody, V domains shown, IgG in the assay) VH: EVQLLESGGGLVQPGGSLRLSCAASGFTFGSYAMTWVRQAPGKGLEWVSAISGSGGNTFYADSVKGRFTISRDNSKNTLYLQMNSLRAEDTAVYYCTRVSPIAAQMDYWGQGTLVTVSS VL: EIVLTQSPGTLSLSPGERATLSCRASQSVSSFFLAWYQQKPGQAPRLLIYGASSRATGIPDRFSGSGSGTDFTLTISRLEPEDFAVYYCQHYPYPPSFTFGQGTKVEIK	min	6.12
L3.PY/L3.KY/H2.QL (antibody, V domains shown, IgG in the assay) VH: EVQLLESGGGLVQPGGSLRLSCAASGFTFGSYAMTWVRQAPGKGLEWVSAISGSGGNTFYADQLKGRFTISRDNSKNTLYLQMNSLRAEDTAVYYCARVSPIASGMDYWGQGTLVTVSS VL: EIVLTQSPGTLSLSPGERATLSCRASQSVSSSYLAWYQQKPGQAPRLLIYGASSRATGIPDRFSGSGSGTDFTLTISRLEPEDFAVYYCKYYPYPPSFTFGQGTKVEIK	min	5.56
L3.PY/L1.FF/P6E01 (antibody, V domains shown, IgG in the assay) VH: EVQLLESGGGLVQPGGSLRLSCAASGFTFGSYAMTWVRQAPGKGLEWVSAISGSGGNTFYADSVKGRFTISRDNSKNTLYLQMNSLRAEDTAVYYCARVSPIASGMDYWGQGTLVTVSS VL: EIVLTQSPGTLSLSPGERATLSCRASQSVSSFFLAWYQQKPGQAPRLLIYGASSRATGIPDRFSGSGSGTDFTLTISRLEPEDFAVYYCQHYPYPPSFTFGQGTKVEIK	min	8.18
L3.PY/L3.KY/H2.LT (antibody, V domains shown, IgG in the assay) VH: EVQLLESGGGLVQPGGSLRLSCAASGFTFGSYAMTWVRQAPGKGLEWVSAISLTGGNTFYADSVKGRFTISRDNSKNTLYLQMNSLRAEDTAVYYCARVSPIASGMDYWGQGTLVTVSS VL: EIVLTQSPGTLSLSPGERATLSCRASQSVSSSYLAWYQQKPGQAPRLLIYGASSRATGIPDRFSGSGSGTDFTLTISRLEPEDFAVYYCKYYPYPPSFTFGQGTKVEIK	min	12.8
L3.PY/L1.PS/H2.QR (antibody, V domains shown, IgG in the assay) VH: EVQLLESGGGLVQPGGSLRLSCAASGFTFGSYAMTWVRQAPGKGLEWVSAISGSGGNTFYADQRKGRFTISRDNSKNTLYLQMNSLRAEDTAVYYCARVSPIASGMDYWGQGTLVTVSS VL: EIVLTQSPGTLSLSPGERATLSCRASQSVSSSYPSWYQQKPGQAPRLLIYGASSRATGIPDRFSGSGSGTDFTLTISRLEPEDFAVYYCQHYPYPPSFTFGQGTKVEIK	min	0.11
L3.PY/H2.YQ (antibody, V domains shown, IgG in the assay) VH: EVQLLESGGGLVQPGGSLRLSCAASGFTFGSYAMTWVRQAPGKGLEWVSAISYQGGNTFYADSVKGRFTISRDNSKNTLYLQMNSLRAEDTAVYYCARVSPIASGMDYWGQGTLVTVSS VL: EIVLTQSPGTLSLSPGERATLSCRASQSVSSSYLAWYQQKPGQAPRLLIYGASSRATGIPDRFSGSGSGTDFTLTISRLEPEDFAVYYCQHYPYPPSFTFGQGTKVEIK	min	7.41
